- experiment.notes: recombinant UMI read abundance after kanamycin selection (control-corrected) (log10(CPM+1)); higher = more efficient recombination; extreme values may be limits of the assay; sequences stand for … in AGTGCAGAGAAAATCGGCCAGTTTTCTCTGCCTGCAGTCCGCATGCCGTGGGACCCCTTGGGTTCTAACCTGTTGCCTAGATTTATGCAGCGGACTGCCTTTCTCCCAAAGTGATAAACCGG…AGGTTGGTTTCACT; site = the 11-nt donor;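 also: IS621 bridge recombinase in Escherichia coli cells against a fixed T5 target plasmid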
value.type: recombinant UMI read abundance (log10)
The answer should be written as a number, with no unit following it.

ordered.residues	recombinant UMI read abundance (log10)
GTTGTTACATGGACCGGTTTTCCCGGTAATCCGTATTTGGT (site GTTGTTGCTAC)	0.0188
GTGGACGCATGGACCGGTTTTCCCGGTAATCCGTATTTGTG (site GTGGAGGCTCA)	0.0785
CGCAATCCATGGACCGGTTTTCCCGGTAATCCGTATTTGAA (site TGCAATCCTTT)	0.00288

Query (sequence): GACGATTCATGGACCGGTTTTCCCGGTAATCCGTATTTGTT (site GATGATTCTAA) ; field requested: recombinant UMI read abundance (log10)
0.263

Query (sequence): GCGACGCCATGGACCGGTTTTCCCGGTAATCCGTATTTGGG (site GCGAAGCCTCC) ; field requested: recombinant UMI read abundance (log10)
0.0164

Query (sequence): CCTTTGGCATGGACCGGTTTTCCCGGTAATCCGTATTTGCT (site CATTTGGCTAG) ; field requested: recombinant UMI read abundance (log10)
0.00684

Query (sequence): GCTCGCGCATGGACCGGTTTTCCCGGTAATCCGTATTTGTG (site GCTCGCGCTCA) ; field requested: recombinant UMI read abundance (log10)
0.397

Query (sequence): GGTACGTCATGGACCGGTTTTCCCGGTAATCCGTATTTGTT (site GGTACGTCTAA) ; field requested: recombinant UMI read abundance (log10)
0.31
